Assay: Probe fluorescence ratio response to linolenic acid relative to ADIFAB2
Type: binding
Details: response relative to ADIFAB2

Molecule: 70S, 72A (protein, listed as Rattus norvegicus, PEPTIDE (1)...(131) wild-type rat intestinal fatty acid binding protein) AFDGTWKVDRNENYEKFMEKMGINVVKRKLGAHDNLKLTITQEGNKFTVKESSNFRNIDVVFELGVDFASSAADGTELTGTWTMEGNKLVGKFKRVDNGKELIAVREISGNELIQTYTYEGVEAKRIFKKE
DR/DR LNA: 0.703
//
Molecule: 51R1, 72A (protein, listed as Rattus norvegicus, PEPTIDE (1)...(131) wild-type rat intestinal fatty acid binding protein) AFDGTWKVDRNENYEKFMEKMGINVVKRKLGAHDNLKLTITQEGNKFTVKRSSNFRNIDVVFELGVDFAYSAADGTELTGTWTMEGNKLVGKFKRVDNGKELIAVREISGNELIQTYTYEGVEAKRIFKKE
DR/DR LNA: 1.56
//
Molecule: 11Y1, 72A (protein, listed as Rattus norvegicus, PEPTIDE (1)...(131) wild-type rat intestinal fatty acid binding protein) AFDGTWKVDRYENYEKFMEKMGINVVKRKLGAHDNLKLTITQEGNKFTVKESSNFRNIDVVFELGVDFAYSAADGTELTGTWTMEGNKLVGKFKRVDNGKELIAVREISGNELIQTYTYEGVEAKRIFKKE
DR/DR LNA: 0.31
